Data provenance: the supplement of paper PMC12645437

Molecular target: T1, CRBN, Q96SW2;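 also: pooled lentiviral library of zinc finger degron-EGFP fusions in mCherry-positive Jurkat cells, FACS-sorted after compound exposure, with degron abundance counted by next-generation sequencing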
T1 chain: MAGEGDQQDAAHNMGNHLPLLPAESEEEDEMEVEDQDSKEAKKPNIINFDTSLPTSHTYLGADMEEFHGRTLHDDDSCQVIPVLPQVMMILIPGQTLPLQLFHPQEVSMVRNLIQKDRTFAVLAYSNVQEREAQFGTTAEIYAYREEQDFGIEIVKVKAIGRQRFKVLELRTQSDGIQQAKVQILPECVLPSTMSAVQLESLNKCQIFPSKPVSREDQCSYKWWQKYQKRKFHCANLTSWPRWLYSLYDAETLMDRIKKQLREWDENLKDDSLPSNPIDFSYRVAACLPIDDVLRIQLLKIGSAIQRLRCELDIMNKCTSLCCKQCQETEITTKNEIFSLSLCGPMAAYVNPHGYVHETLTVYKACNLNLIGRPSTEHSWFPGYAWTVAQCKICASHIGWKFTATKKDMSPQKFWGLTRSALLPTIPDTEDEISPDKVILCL
Test: log2 fold change of degron read counts, EGFP-low vs EGFP+ sorted cells (limma voom), compound-induced degradation; higher = more compound-induced degradation of the degron-EGFP fusion; degrons are variants of IKZF1/3 zinc finger 2; compound dose not given here
Conditions: Jurkat; 18 h; compound: compound 33 (diphenyl IMiD analogue)
Whole data set: some 8,300 sequences, median “log2 fold change of degron read counts, EGFP-low vs EGFP+ sorted cells (limma voom), compound-induced degradation” near -1.1, cut for the highest 2% near 3.2. For the sample, the highest values were picked, then their nearest neighbours and some sequences at random.
Criterion: log2 fold change of degron read counts meeting or surpassing -1. Met: T. Not met: F.

>>> group_label("FSCDICGAKFTQKGNLLRHIKL [46F_47S_49D_50I_52G_53A_54K_55F_67L_, Q9UKT9]")
"F"
>>> group_label("FTCSVCGHMFTQKGNLLRHIKL [46F_47T_49S_50V_52G_53H_54M_55F_67L_, Q9UKT9]")
"F"
>>> group_label("LTCEICGFFCTQKGNLLRHIKL [46L_47T_49E_50I_52G_53F_54F_55C_67L_, Q9UKT9]")
"T"
>>> group_label("FICPICGRHFTQKGNLLRHIKL [46F_47I_49P_50I_52G_53R_54H_55F_67L_, Q9UKT9]")
"T"
>>> group_label("FQCNQCGREFTQKGNLLRHIKL [46F_47Q_49N_50Q_52G_53R_54E_55F_67L_, Q9UKT9]")
"F"
>>> group_label("FMCPICGADFTQKGNLLRHIKL [46F_47M_49P_50I_52G_53A_54D_55F_67L_, Q9UKT9]")
"T"

Check the entry FTCNICGAIFTQKGNLLRHIKL [46F_47T_49N_50I_52G_53A_54I_55F_67L_, Q9UKT9] : does log2 fold change of degron read counts equal or exceed -1?
T

Check the entry FRCEICGHVFTQKGNLLRHIKL [46F_47R_49E_50I_52G_53H_54V_55F_67L_, Q9UKT9] : does log2 fold change of degron read counts equal or exceed -1?
F

Check the entry FMCPICGAMFTQKGNLLRHIKL [46F_47M_49P_50I_52G_53A_54M_55F_67L_, Q9UKT9] : does log2 fold change of degron read counts equal or exceed -1?
T
